tested on: dsDNA; assay: Binding affinity to 5'-ACTTATTCCATATAGA-3'/3'-TGAATAAGGTATATCT-5' dsDNA (unknown origin) assessed as change in melting temperature at 2.5 uM by spectrophotometric method; type: nucleic-acid assay
Overview of recorded ΔTm for various molecules
Write the answer as a number in °C, unit excluded.

Observe how each entry below is paired with its result.
INSERT INTO assay_data (structure_as_smiles, quantity, result_number) VALUES
  ('CC1=NN(c2ccc(C(=O)NCCC(=O)NCCC(=O)Nc3cc(C(=O)Nc4cn(C)c(C(=O)Nc5cn(C)c(C(=O)Nc6cc(C(=O)NCCCC(=O)Nc7cc(C(=O)Nc8cc(C(=O)Nc9cc(C(=O)Nc%10cc(C(=O)NCCCN(C)C)n(C)c%10)n(C)c9)n(C)c8)n(C)c7)n(C)c6)n5)n4)n(C)c3)cc2)C(=O)/C1=C/c1ccc(-c2cc(C)c(C)cc2[N+](=O)[O-])o1', 'ΔTm', 16.9),
  ('CC1=NN(c2ccc(C(=O)NCCOCCOCC(=O)NCCOCCOCC(=O)Nc3cc(C(=O)Nc4cn(C)c(C(=O)Nc5cn(C)c(C(=O)Nc6cc(C(=O)NCCCC(=O)Nc7cc(C(=O)Nc8cc(C(=O)Nc9cc(C(=O)Nc%10cc(C(=O)NCCCN(C)C)n(C)c%10)n(C)c9)n(C)c8)n(C)c7)n(C)c6)n5)n4)n(C)c3)cc2)C(=O)/C1=C/c1ccc(-c2cc(C)c(C)cc2[N+](=O)[O-])o1', 'ΔTm', 18.4),
  ('CC1=NN(c2ccc(C(=O)NCCOCCOCC(=O)NCCC(=O)Nc3cn(C)c(C(=O)Nc4cc(C(=O)Nc5cn(C)c(C(=O)Nc6cn(C)c(C(=O)NCCCC(=O)Nc7cc(C(=O)Nc8cc(C(=O)Nc9cc(C(=O)Nc%10cc(C(=O)NCCCN(C)C)n(C)c%10)n(C)c9)n(C)c8)n(C)c7)n6)n5)n(C)c4)n3)cc2)C(=O)/C1=C/c1ccc(-c2cc(C)c(C)cc2[N+](=O)[O-])o1', 'ΔTm', 13.6);

Fill in the recorded ΔTm for this molecule, with dsDNA as test system: "CC1=NN(c2ccc(C(=O)NCCOCCOCC(=O)NCCC(=O)Nc3cc(C(=O)Nc4cn(C)c(C(=O)Nc5cn(C)c(C(=O)Nc6cc(C(=O)NCCCC(=O)Nc7cc(C(=O)Nc8cc(C(=O)Nc9cc(C(=O)Nc%10cc(C(=O)NCCCN(C)C)n(C)c%10)n(C)c9)n(C)c8)n(C)c7)n(C)c6)n5)n4)n(C)c3)cc2)C(=O)/C1=C/c1ccc(-c2cc(C)c(C)cc2[N+](=O)[O-])o1" 18.1

----------
system: dsDNA; test: Binding affinity to 5'-ACTTATCCACTATAGA-3'/3'-TGAATAGGTGATATCT-5' dsDNA (unknown origin) assessed as change in melting temperature at 2.5 uM by spectrophotometric method; assay type: nucleic-acid assay
Quantity: ΔTm (°C)
# value in °C; strip the unit string

Given the entry "CC1=NN(c2ccc(C(=O)NCCOCCOCC(=O)NCCC(=O)Nc3cn(C)c(C(=O)Nc4cc(C(=O)Nc5cn(C)c(C(=O)Nc6cn(C)c(C(=O)NCCCC(=O)Nc7cc(C(=O)Nc8cc(C(=O)Nc9cc(C(=O)Nc%10cc(C(=O)NCCCN(C)C)n(C)c%10)n(C)c9)n(C)c8)n(C)c7)n6)n5)n(C)c4)n3)cc2)C(=O)/C1=C/c1ccc(-c2cc(C)c(C)cc2[N+](=O)[O-])o1" , report its measured ΔTm. 20.9

Follow-up item: "CC1=NN(c2ccc(C(=O)NCCOCCOCC(=O)NCCOCCOCC(=O)Nc3cc(C(=O)Nc4cn(C)c(C(=O)Nc5cn(C)c(C(=O)Nc6cc(C(=O)NCCCC(=O)Nc7cc(C(=O)Nc8cc(C(=O)Nc9cc(C(=O)Nc%10cc(C(=O)NCCCN(C)C)n(C)c%10)n(C)c9)n(C)c8)n(C)c7)n(C)c6)n5)n4)n(C)c3)cc2)C(=O)/C1=C/c1ccc(-c2cc(C)c(C)cc2[N+](=O)[O-])o1" 12.2

Request: "CC1=NN(c2ccc(C(=O)NCCOCCOCC(=O)NCCC(=O)Nc3cc(C(=O)Nc4cn(C)c(C(=O)Nc5cn(C)c(C(=O)Nc6cc(C(=O)NCCCC(=O)Nc7cc(C(=O)Nc8cc(C(=O)Nc9cc(C(=O)Nc%10cc(C(=O)NCCCN(C)C)n(C)c%10)n(C)c9)n(C)c8)n(C)c7)n(C)c6)n5)n4)n(C)c3)cc2)C(=O)/C1=C/c1ccc(-c2cc(C)c(C)cc2[N+](=O)[O-])o1" 11.5
